Target: T1, recombinant cynomolgus C1r2s2 tetramer (cynomolgus monkey, limits assumed)
T1 construct: also called cyC1r2s2; monkey C1r2s2
T1 chain 1: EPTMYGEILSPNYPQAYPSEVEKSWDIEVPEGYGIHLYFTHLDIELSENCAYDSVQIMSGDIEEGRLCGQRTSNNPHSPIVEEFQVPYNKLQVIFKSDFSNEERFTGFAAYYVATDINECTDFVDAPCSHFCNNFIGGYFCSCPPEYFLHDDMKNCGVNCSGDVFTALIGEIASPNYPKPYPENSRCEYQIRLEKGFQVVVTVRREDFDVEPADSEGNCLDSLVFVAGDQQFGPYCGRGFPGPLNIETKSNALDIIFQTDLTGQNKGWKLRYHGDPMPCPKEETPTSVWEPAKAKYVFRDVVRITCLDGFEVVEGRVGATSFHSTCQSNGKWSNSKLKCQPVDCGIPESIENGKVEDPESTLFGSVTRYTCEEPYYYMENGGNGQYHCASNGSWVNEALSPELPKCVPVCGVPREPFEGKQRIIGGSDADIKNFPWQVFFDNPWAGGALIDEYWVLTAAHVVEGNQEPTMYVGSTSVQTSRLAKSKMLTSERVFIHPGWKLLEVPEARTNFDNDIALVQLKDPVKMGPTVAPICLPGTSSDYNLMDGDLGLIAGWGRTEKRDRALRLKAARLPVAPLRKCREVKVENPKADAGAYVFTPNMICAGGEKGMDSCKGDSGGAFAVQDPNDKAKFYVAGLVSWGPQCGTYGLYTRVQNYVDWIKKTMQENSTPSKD
T1 chain 2: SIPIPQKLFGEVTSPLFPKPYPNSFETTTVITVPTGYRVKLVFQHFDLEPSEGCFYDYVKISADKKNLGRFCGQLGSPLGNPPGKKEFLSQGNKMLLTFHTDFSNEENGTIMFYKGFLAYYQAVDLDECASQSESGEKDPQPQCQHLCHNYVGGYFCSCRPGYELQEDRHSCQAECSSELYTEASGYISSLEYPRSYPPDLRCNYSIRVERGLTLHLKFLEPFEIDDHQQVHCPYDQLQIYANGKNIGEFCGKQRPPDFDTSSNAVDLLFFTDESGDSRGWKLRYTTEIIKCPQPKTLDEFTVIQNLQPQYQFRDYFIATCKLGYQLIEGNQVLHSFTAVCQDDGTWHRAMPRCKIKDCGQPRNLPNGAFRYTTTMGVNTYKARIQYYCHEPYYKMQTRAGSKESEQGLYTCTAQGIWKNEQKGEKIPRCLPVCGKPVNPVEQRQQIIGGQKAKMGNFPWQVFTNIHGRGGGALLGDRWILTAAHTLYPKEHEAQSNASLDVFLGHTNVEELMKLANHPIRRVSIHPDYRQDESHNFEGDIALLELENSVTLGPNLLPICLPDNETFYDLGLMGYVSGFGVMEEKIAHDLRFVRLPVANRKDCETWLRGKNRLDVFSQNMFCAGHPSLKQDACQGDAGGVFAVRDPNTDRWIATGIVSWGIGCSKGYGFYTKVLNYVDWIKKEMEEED
Experiment: SPR (Biacore T200), 37 C; ratio of KD at pH 6.0 to KD at pH 7.4
binders and their reported KD (pH 6.0)/KD (pH 7.4)
Hey, just send me the number, nothing else.

[
  {
    "binder": "COS0637pHv15-G1A3FcgSil+LowpI (antibody, V domains shown, VH 24, VL 59, CH 45 (G1A3FcgSil+LowpI), CL 23) VH: QVQLVESGGGVVQPGRSLRLSCAASGFTFSAYAMNWIRQPPGKGLEWIGLIYGSGHEFYASWAEERVTISVDTSKNQFSLKLSSVTAADTAVYYCARGRSKNYNSDFHLWGQGTLVTVSS VL: DIQMTQSPSSLSASVGDRVTITCQANEILHDKKNLAWYQQKPGQPPKLLIYGASTLESGVPSRFSGSGSGTDFTLTISSLQPEDFATYYCHGEFSYHSADLNTFGQGTKVEIKR",
    "KD (pH 6.0)/KD (pH 7.4)": 226
  },
  {
    "binder": "COS0637pHv25-G1A3FcgSil+LowpI (antibody, V domains shown, VH 32, VL 55, CH 45, CL 23) VH: QVQLVESGGGVVQPGRSLRLSCAASGFTFSAYAMNWIRQPPGKGLEWIGLMYGSGHEFYASWAEERVTISVDTSKNQFSLKLSSVTAADTAVYYCARGRSKNYNSDFHLWGQGTLVTVSS VL: DIQMTQSPSSLSASVGDRVTITCQAHEILHDKKNLAWYQQKPGQPPKLLIYGASQRESGVPSRFSGSGSGTDFTLTISSLQPEDFATYYCHGEFPHSSADLNHFGQGTKVEIKR",
    "KD (pH 6.0)/KD (pH 7.4)": 276
  },
  {
    "binder": "COS0637pHv23-G1A3FcgSil+LowpI (antibody, V domains shown, VH 28, VL 51, CH 45, CL 23) VH: QVQLVESGGGVVQPGRSLRLSCAASGFTFSAYAMNWIRQPPGKGLEWIGLIYGTGHEFYASWAEERVTISVDTSKNQFSLKLSSVTAADTAVYYCARGRSKNYNSDFHIWGQGTLVTVSS VL: DIQMTQSPSSLSASVGDRVTITCQAHEILHDKKNLAWYQQKPGQPPKLLIYSASILESGVPSRFSGSGSGTDFTLTISSLQPEDFATYYCHGEFSHGSADLNHFGQGTKVEIKR",
    "KD (pH 6.0)/KD (pH 7.4)": 139
  },
  {
    "binder": "COS0637pHv3-TT91R (antibody, human IgG1, V domains shown, Modified human IgG1 constant region TT91R, light chain constant region SK1) VH: QVQLVESGGGVVQPGRSLRLSCAASGFTFSAYAMNWIRQPPGKGLEWIGLIYGSGHEFYASWAEERVTISVDTSKNQFSLKLSSVTAADTAVYYCARGRSKNYVSGFHLWGQGTLVTVSS VL: DIQMTQSPSSLSASVGDRVTITCQASQILHDKKNLAWYQQKPGQPPKLLIYQASQLESGVPSRFSGSGSGTDFTLTISSLQPEDFATYYCHGEFSYESADLNQFGQGTKVEIKR",
    "KD (pH 6.0)/KD (pH 7.4)": 43.8
  },
  {
    "binder": "COS0637pHv16-G1A3FcgSil+LowpI (antibody, V domains shown, VH 36, VL 55, CH 45, CL 23) VH: QVQLVESGGGVVQPGRSLRLSCAASGFTFSAYTMNWIRQPPGKGLEWIGLIYGSGHEFYASWAEERVTISVDTSKNQFSLKLSSVTAADTAVYYCARGRSKNYNSDFHLWGQGTLVTVSS VL: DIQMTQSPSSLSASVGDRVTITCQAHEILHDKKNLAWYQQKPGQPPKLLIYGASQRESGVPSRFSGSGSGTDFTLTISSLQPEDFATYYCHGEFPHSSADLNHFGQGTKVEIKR",
    "KD (pH 6.0)/KD (pH 7.4)": 465
  }
]

Now for another entry.
Q. Requested read-out: KD (pH 6.0)/KD (pH 7.4). Entry: COS0637pHv17-G1A3FcgSil+LowpI (antibody, V domains shown, VH 24, VL 55, CH 45, CL 23) VH: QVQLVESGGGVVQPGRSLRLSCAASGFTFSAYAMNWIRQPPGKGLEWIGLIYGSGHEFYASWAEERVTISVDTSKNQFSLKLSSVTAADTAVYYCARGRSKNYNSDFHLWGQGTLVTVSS VL: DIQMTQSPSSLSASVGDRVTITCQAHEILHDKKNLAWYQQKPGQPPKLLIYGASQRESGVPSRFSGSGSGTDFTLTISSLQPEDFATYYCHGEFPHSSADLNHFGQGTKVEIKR
A. 421
